run.description: Half life in mouse
Format: ADME, organism-based
test.conditions: in vivo
test.readout: half-life (h)
Report only the number, with the unit h understood.

Entry CO[C@@H]([C@@H]1OC(C(=O)O)=C[C@H](NC(=N)N)[C@H]1NC(C)=O)[C@H](O)CO [LANINAMIVIR] — recorded half-life = 41.4
